Target: T1, GST-TIP1 PDZ domain 1 (Table 9 insert) (Homo sapiens (Human)), O14907
T1 chain: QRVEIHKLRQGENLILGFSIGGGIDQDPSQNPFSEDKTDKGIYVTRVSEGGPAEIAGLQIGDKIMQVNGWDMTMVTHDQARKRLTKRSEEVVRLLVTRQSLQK
Test: G' assay; also: key of the grades not given here
recorded endpoint: Classification (A450 class)
Give just the number in A450 class; leave the unit off.

Inquiry: Annotate the binder TFAAGFNSTGLPHSTTRV (modifications not checked) [Neuroligin] with its measured Classification.
Reply text: 1

Inquiry: State, in one line, measured Classification of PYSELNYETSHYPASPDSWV (modifications not checked) [catenin - delta 2]
Reply text: 3

Inquiry: Please report the measured Classification for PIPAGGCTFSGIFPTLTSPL (modifications not checked) [KIA 1481]
Reply text: 2

Inquiry: Hello, please tell me recorded Classification for this one: EDPKDRPSAAHIVEALETDV (modifications not checked) [PDZ-binding kinase (PBK)]
Reply text: 1

Inquiry: Consider the binder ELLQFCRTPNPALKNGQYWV (modifications not checked) [CSPG4 (chondroitin sulfae proteoglycan 4, melanoma-associated)] and give its recorded Classification.
Reply text: 1
